Provenance of the data: ChEMBL document CHEMBL2046351

protocol: AUC (0 to infinity) in C57BL/6 mouse at 6 umol/kg, po dosed in carboxymethyl cellulose 0.5% w/v in water/Tween 80 (99.5/0.5, v/v) by LC/MS/MS analysis
Format: ADME, organism-based
Set-up: dose 6 umol/kg, time infinity, route oral
setup.conditions: in vivo
value.kind: AUC(0-inf) (µM·h)

- cpd.smiles: "CC(C)(C)c1cccc(CN[C@H]2CS(=O)(=O)C[C@@H](Cc3cc(F)c(N)c(OCC(F)(F)F)c3)[C@@H]2O)c1"
  value.kind: "AUC(0-inf)"
  data.value: 0.466

----------
System: MDR1 (human)
protocol: Apparent permeability across MDCK cells expressing human MDR1 at 5 uM after 2 hrs by LC-MS analysis
Type: ADME, cell-based, Canis lupus familiaris
setup.conditions: dog
This listing pairs compounds with measured Papp at 2 h, 5 µM.
value.kind: Papp at 2 h, 5 µM (×10⁻⁶ cm/s)

- compound: "CC(C)(C)Cc1cc(CN[C@H]2CS(=O)(=O)C[C@@H](Cc3cc(F)c(N)c(OC(C(F)(F)F)C(F)(F)F)c3)[C@@H]2O)no1"
  system.name: "MDR1 (human)"
  value.kind: "Papp at 2 h, 5 µM"
  data.value: 20
- compound: "CCCOc1cccc(C[C@@H]2CS(=O)(=O)C[C@H](NCc3cccc(C(C)(C)C)c3)[C@H]2O)c1 (relative stereo)"
  system.name: "MDR1 (human)"
  value.kind: "Papp at 2 h, 5 µM"
  data.value: 2
- compound: "CC(C)(C)c1cccc(CN[C@H]2CS(=O)(=O)C[C@@H](Cc3ccc(N)nc3)[C@@H]2O)c1 (racemic)"
  system.name: "MDR1 (human)"
  value.kind: "Papp at 2 h, 5 µM"
  data.value: 17.4
- compound: "CC(C)(C)c1cccc(CN[C@H]2CS(=O)(=O)C[C@@H](Cc3cc(F)c(N)c(OCCF)c3)[C@@H]2O)c1"
  system.name: "MDR1 (human)"
  value.kind: "Papp at 2 h, 5 µM"
  data.value: 26
